Listed below: pIC50 values for each entry.
- target of assay: Recombinant SARS-CoV-2 3CL Protease (Severe acute respiratory syndrome coronavirus 2 (2019-nCoV) (SARS-CoV-2), UniProt P0DTD1)
- assay details: biochemical
- Assay type: biochemical
- test parameters: 50% SARS-CoV-2 3CL protease inhibitory concentration; read-out: IC50
pIC50: −log10 of the molar value.
quantity: pIC50

In [3]: df
Out[3]:
                                   compound  measured_result
0  N#CCn1c(N2CC3(C2)CC(F)(F)C3)c(-c2ccc(F)c(Cl)c2)c(=O)n(-c2cncc(C(F)F)n2)c1=O [Compound I-208]             8.74
1  N#CCn1c(N2CC3(CCOC3)C2)c(-c2ccc(F)c(Cl)c2)c(=O)n(-c2cnc3ccccn23)c1=O [Compound I-043]     7.00 to 8.00
2  N#CCn1c(N2CCC3(CCC(=O)N3)C2)c(-c2ccc(F)c(Cl)c2)c(=O)n(-c2cncc(Cl)c2)c1=O (racemic) [Compound I-061]           > 8.00

###

Listed below: pEC50 values for each entry.
- Test system: SARS-CoV-2
- assay details: Cytopathic effect (CPE) suppression effect confirmation test using HEK293T/ACE2-TMPRSS2 cells
- Type: cell-based
- test parameters: Severe acute respiratory syndrome coronavirus 2, HEK-293T, 72 h, read-out: EC50 (50% SARS-CoV-2 infected cell death inhibitory concentration), class, HEK293T/ACE2-TMPRSS2 cells, CPE suppression, CellTiter-Glo 2.0 after 3 days culture
pEC50: −log10 of the molar value.
quantity: pEC50

In [3]: df
Out[3]:
                                    molecule  measured_result
 0  N#CCn1c(N2CC3(CCCO3)C2)c(-c2ccc(F)c(Cl)c2)c(=O)n(-c2cncc(Cl)c2)c1=O           > 7.00
 1  N#CCn1c(N2CCC(C(F)(F)F)CC2)c(-c2ccc(F)c(Cl)c2)c(=O)n(-c2cnc3cc(F)ccn23)c1=O           > 7.00
 2  Cc1cncc(-n2c(=O)c(Cc3cc(F)c(F)c(F)c3)c(/C=C/CO)n(CC#N)c2=O)c1     6.00 to 7.00
 3  Cc1cncc(-n2c(=O)c(-c3ccc(F)c(Cl)c3)c(-c3nc4ccccc4o3)n(CC#N)c2=O)c1           > 7.00
 4  Cc1cncc(-n2c(=O)c(Cc3cc(F)c(F)c(F)c3)c(N3CC4CC(F)(F)C4C3)n(CC#N)c2=O)c1 (racemic)           > 7.00
 5  N#CCn1c(N2CC3(CCOC3)C2)c(Cc2cc(F)c(F)c(F)c2)c(=O)n(-c2cnn3ccccc23)c1=O     6.00 to 7.00
 6  Cc1cncc(-n2c(=O)c(Cc3cc(F)c(F)c(F)c3)c(N3CCC(C(F)F)CC3)n(CC#N)c2=O)c1           > 7.00
 7  Cc1cnnc(-n2c(=O)c(-c3ccc(F)c(Cl)c3)c(N3CC4(CCOC4)C3)n(CC#N)c2=O)c1           > 7.00
 8  CN1CCN(c2c(-c3ccc(F)c(Cl)c3)c(=O)n(-c3cncc(Cl)c3)c(=O)n2CC#N)CC1=O           > 7.00
 9  N#CCn1c(N2CC3(CCOC3)C2)c(-c2cccc(C(F)F)c2)c(=O)n(-c2cncc(Cl)c2)c1=O           > 7.00
10  Cc1cc(-n2c(=O)c(-c3ccc(F)c(Cl)c3)c(N3CC4(C3)CC(F)(F)C4)n(CC#N)c2=O)cc(=O)[nH]1     6.00 to 7.00
11  N#CCn1c(N2CC3(CC3)C2)c(-c2ccc(F)c(Cl)c2)c(=O)n(-c2cnc3cc(Cl)ccn23)c1=O           > 7.00
12  N#CCn1c(N2Cc3cn[nH]c3C2)c(Cc2cc(F)c(F)c(F)c2)c(=O)n(-c2cncc(Cl)c2)c1=O           > 7.00
13  N#CCn1c(N2CCC(C(F)(F)F)CC2)c(-c2ccc(F)c(Cl)c2)c(=O)n(-c2cncc(Cl)c2)c1=O           > 7.00

###

- target of assay: Recombinant SARS-CoV-2 3CL Protease (Severe acute respiratory syndrome coronavirus 2 (2019-nCoV) (SARS-CoV-2), UniProt P0DTD1)
- assay details: biochemical
- Type: biochemical
- test parameters: 50% SARS-CoV-2 3CL protease inhibitory concentration; read-out: IC50
pIC50: −log10 of the molar value.
quantity: pIC50

>>> df
                                    compound  quantity  measured_result
 0  N#CCn1c(N2CC(F)(c3ncccn3)C2)c(-c2ccc(F)c(Cl)c2)c(=O)n(-c2cncc(Cl)c2)c1=O [Compound I-287]     pIC50           > 8.00
 1  N#CCn1c(N2CC3(CCOC3)C2)c(-c2cc(Cl)cc(C#N)c2)c(=O)n(-c2cncc(Cl)c2)c1=O [Compound I-179]     pIC50           > 8.00
 2  Cc1cncc(-n2c(=O)c(-c3ccc(F)c(Cl)c3)c(N3C[C@@H]4C[C@H]3CO4)n(CC#N)c2=O)c1 [Compound I-225]     pIC50           > 8.00
 3  N#CCn1c(N2Cc3ccccc3C2)c(Cc2cc(F)c(F)c(F)c2)c(=O)n(-c2nnc3ccccn23)c1=O [Compound I-156]     pIC50     7.00 to 8.00
 4  Cc1cncc(-n2c(=O)c(Cc3cc(F)c(F)c(F)c3)c(N3CCC(C)(F)C3)n(CC#N)c2=O)c1 (racemic) [Compound I-115]     pIC50           > 8.00
 5  CCN1CCN(c2c(-c3ccc(F)c(Cl)c3)c(=O)n(-c3cncc(C)c3)c(=O)n2CC#N)CC1=O [Compound I-224]     pIC50           > 8.00
 6  N#CCn1c(N2CC3(CCOC3)C2)c(CC2CC(F)(F)C2)c(=O)n(-c2cncc(Cl)c2)c1=O [Compound I-364]     pIC50           < 7.00
 7  N#CCn1c(N2CC(O)(c3ncccn3)C2)c(-c2ccc(F)c(Cl)c2)c(=O)n(-c2cncc(C(F)(F)F)c2)c1=O [Compound I-261]     pIC50             7.74
 8  Cc1cncc(-n2c(=O)c(-c3ccc(F)c(Cl)c3)c(N3Cc4ccccc4C3=O)n(CC#N)c2=O)c1 [Compound I-023]     pIC50           > 8.00
 9  N#CCn1c(N2CC(O)(c3ncccn3)C2)c(-c2ccc(F)c(Cl)c2)c(=O)n(-c2cncc(OC(F)F)n2)c1=O [Compound I-378]     pIC50           > 8.00
10  N#CCn1c(N2C[C@H]3C[C@@H]2CN3)c(-c2ccc(F)c(Cl)c2)c(=O)n(-c2cncc(Cl)c2)c1=O [Compound I-146]     pIC50           > 8.00
11  CN(C)c1cnnc(-n2c(=O)c(-c3ccc(F)c(Cl)c3)c(N3CC4(C3)CC(F)(F)C4)n(CC#N)c2=O)c1 [Compound I-219]     pIC50     7.00 to 8.00
12  Cc1cncc(-n2c(=O)c(Oc3ccccc3)c(N3Cc4ccccc4C3)n(CC#N)c2=O)c1 [Compound I-014]     pIC50             8.29
13  Cc1cc(-n2c(=O)c(-c3cc(F)c(F)c(Cl)c3)c(N3CC4(CCOCC4)C3)n(CC#N)c2=O)cc(=O)[nH]1 [Compound I-032]     pIC50           > 8.00

###

Listed below: pEC50 values for each entry.
- System: SARS-CoV-2
- assay details: Cytopathic effect (CPE) suppression effect confirmation test using HEK293T/ACE2-TMPRSS2 cells
- Format: cell-based
- test parameters: Severe acute respiratory syndrome coronavirus 2, HEK-293T, 72 h, read-out: EC50 (50% SARS-CoV-2 infected cell death inhibitory concentration), class, HEK293T/ACE2-TMPRSS2 cells, CPE suppression, CellTiter-Glo 2.0 after 3 days culture
pEC50: −log10 of the molar value.
quantity: pEC50

                           smiles_structure  measured_result
0  N#CCn1c(N2CC(F)(C3CC3)C2)c(-c2ccc(F)c(Cl)c2)c(=O)n(-c2cncc(Cl)c2)c1=O           > 7.00
1  N#CCn1c(N2CC3(CCCO3)C2)c(-c2ccc(F)c(Cl)c2)c(=O)n(-c2cnc3cc(F)ccn23)c1=O           > 7.00
2  Cc1cncc(-n2c(=O)c(Cc3cc(F)c(F)c(F)c3)c(N3CC[C@@H](C(N)=O)C3)n(CC#N)c2=O)c1           > 7.00
3  Cc1cc(-n2c(=O)c(-c3ccc(F)c(Cl)c3)c(-c3cc4ccccc4s3)n(CC#N)c2=O)cc(=O)[nH]1           > 7.00
